The origin of these recorded values is the Biogen ADME set (Fang et al. 2023).

- RUN CONDITIONS: pH 6.8
VALUE TYPE: log10(aqueous solubility) (log10 of the value in µg/mL)
Please interpret these as log10 of aqueous solubility where aqueous solubility is in µg/mL.

SMILES NOTATION: Cc1cc(C)nc(-n2nc(C)c(CC(=O)NC3CCCCCC3)c2C)n1
log10(aqueous solubility): 1.74

Field: log10(aqueous solubility). Fill in for each record below.
1. CNc1cc(Nc2cccn(-c3ccccn3)c2=O)nn2c(C(=O)N[C@@H]3C[C@@H]3F)cnc12
2. Cc1csc(NC(=O)CCc2ccncc2)n1

1: 0.09; 2: 1.58

###

VALUE TYPE: MDR1-MDCK efflux ratio

These solved cases illustrate the format of a correct answer.
COMPOUND: CCC(C)(C)N1CCN(C(=O)Nc2cnn(CC(C)C)c2C(F)F)CC1
MDR1-MDCK efflux ratio: 4.08
//
COMPOUND: Cc1noc(-c2ccc(-c3ccc(CC(=O)O)cc3)cc2)c1NC(=O)O[C@H](C)c1ccccc1Cl
MDR1-MDCK efflux ratio: 7.69
//
COMPOUND: CCCC1(CNC(=O)Cn2ccc(=O)cc2)CCC1
MDR1-MDCK efflux ratio: 14.3

Each compound below has a reported value. Please supply its MDR1-MDCK efflux ratio.
1. CCc1nccn1Cc1nc(N)nc(N(C)C)n1
2. CNC(=O)c1cc(C2CCN(C)CC2)ncn1
3. Cc1oc2ncnc(NCc3cc(F)cc4c3OCOC4)c2c1C
4. Cc1cccc(CNc2cccc3c2CCN(S(C)(=O)=O)C3)c1

[18.5, 0.605, 0.553, 0.65]

Could I get MDR1-MDCK efflux ratio for every one of these entries?
1. O=C(NCc1ccc(CO)c(F)c1)Nc1ccccc1
2. O=C(CN1CCCC(c2ccc3cn[nH]c3n2)C1)N1CCCC1 (centres undefined)

1: 0.427; 2: 30.2

# batch size: 8; output MDR1-MDCK efflux ratio per entry
1. CN1C(N)=N[C@](C)(c2cc(NC(=O)c3ccc(F)cn3)ccc2F)CS1(=O)=O
2. CCN1CCc2ncnc(N3CCNc4ccccc4C3)c2C1
3. CCN(Cc1ccccc1)C(=O)c1cccnc1N
4. Cc1cc(C)cc(C(=O)Nc2c(C#N)cnn2C)c1
5. CN(Cc1ccccn1)c1nc2ccccc2o1
6. O=C(CCc1ccc(Cl)cc1)N1CCCC(c2n[nH]cc2-c2cccc(F)c2)C1 (centres undefined)
7. Cc1cccc(C(=O)NCC#Cc2ccccc2)n1
8. Cn1ccnc1CN(C(=O)c1[nH]c2ccccc2c1Cl)C1CC1

93.4
1.78
0.65
1.1
0.718
5.67
0.421
12.4

Parameters: items (list). Returns: MDR1-MDCK efflux ratio for each item.
1. CN(C)CC(C)(C)CNc1cn[nH]c(=O)c1Br
2. CCOc1ccccc1CNCCc1c[nH]c2ccccc12
3. CCOC(=O)Nc1cc(-c2ccc(C)c(NS(C)(=O)=O)c2)nn2c(C)nnc12
4. O=C(NCCc1ccc2c(c1)OCO2)N1CCc2sccc2C1
5. CN1CCCN(C(=O)NCCOc2ccc3c(c2)OCO3)CC1
6. CCOc1ccc(CC(=O)NCCn2cccnc2=O)cc1

1. 0.676
2. 3.34
3. 28.4
4. 0.646
5. 19.9
6. 18

For each of the items listed, what is its MDR1-MDCK efflux ratio?
1. COc1ccc(CNC(=O)c2cc(-c3cncc(C)c3)ncc2-c2nccs2)nc1OC
2. COC(=O)c1cccc2c1CCCN2C(=O)c1ccccc1
3. CN(C)S(=O)(=O)N1CCC(c2ccc3c(NCc4ccccc4F)n[nH]c3n2)CC1
4. CCc1cc2c(N(C)CCO)ncnc2s1

9.82
0.474
3.07
0.676

Hi team, please reply with MDR1-MDCK efflux ratio for each item in this list.
1. N#CCN1CCC(CNC(=O)c2c(F)ccc(F)c2F)CC1
2. Cc1ccnc(Oc2cc(N)ccc2C)c1
3. O=C1CCCN1c1ccc(CN2CCC(c3noc4cc(F)ccc34)CC2)cc1

[1.76, 0.542, 0.963]

Provide each entry's MDR1-MDCK efflux ratio from the list below.
1. Cc1ccccc1CC(=O)N1CCN(C(=O)c2ccccc2)CC1
2. COCCN(C)c1ccc(CN2CCc3nn(C)c(=O)cc3C2)cn1
3. CN1CCN(S(=O)(=O)c2ccc(-c3cnc(N)c(C(=O)Nc4cccnc4)n3)cc2)CC1
4. O=C(c1cnc(-c2ccccc2)s1)N1CCOC2(CCCC2)C1
5. CCC(CC)NC(=O)c1ccc2ncsc2c1
6. C(=C\c1ccccc1)/CNCc1ccc2c(c1)OCO2
7. Cc1ccnc(-n2nccc2NC(=O)N2CCCN(C)CC2)c1

1: 2.06; 2: 3.02; 3: 72.4; 4: 0.58; 5: 0.527; 6: 0.337; 7: 2.95

Record MDR1-MDCK efflux ratio for all entries; do not skip any.
1. CCOC1CCN(C(=O)Cn2c(=O)[nH]c3ccccc32)CC1
2. Nc1n[nH]cc1-c1cc(Cl)ccc1Oc1cc(F)c(S(=O)(=O)Nc2cscn2)cc1Cl

1: 16.9; 2: 76.2

###

VALUE TYPE: intrinsic clearance, rat liver microsomes

Example compounds with recorded intrinsic clearance, rat liver microsomes:
SMILES NOTATION: CN(C)C(=O)CN1CCN(C(=O)c2ccc3ccccc3c2O)CC1
EXPERIMENTAL RESULT: ≤ 10.7 mL/min/kg
--
SMILES NOTATION: Cc1ccc(C(=O)N(C)Cc2c(C)noc2C)cn1
EXPERIMENTAL RESULT: ≤ 10.7 mL/min/kg

Now for a further compound.
Fill in the blank: the reported intrinsic clearance, rat liver microsomes of Cc1nc2c(cnn2C(C)C)c(C)c1CCC(=O)O is ____.
≤ 10.7 mL/min/kg

###

Field 'label' (enum: T / F). Set to T when intrinsic clearance, rat liver microsomes is strictly under 200 mL/min/kg; else F.

SMILES NOTATION: CNC(=O)Cc1cccc(OCCN2CCCCC2)c1
CAT: T

Is intrinsic clearance, rat liver microsomes strictly under 200 mL/min/kg for the entry CCNC(=O)c1ccc(CS(C)(=O)=O)cc1 ?
T

Lab note: confirm whether the reported intrinsic clearance, rat liver microsomes for this compound is below 200 mL/min/kg, equality not counting. compound: COc1cccc(C(=O)C[n+]2cc(-c3ccc(F)cc3)n(C)c2N)c1
T

Lab note: confirm whether the reported intrinsic clearance, rat liver microsomes for this compound is below 200 mL/min/kg, equality not counting. compound: CN(c1ccc(NC(=O)Nc2ccc(OC(F)(F)F)cc2)cc1)c1ccnc(Nc2cccc(S(N)(=O)=O)c2)n1
T

###

Please provide measured intrinsic clearance, human liver microsomes for the entries that follow.
Answers are plain numbers, in mL/min/kg.

Previously resolved entries follow.
SMILES NOTATION: Cc1sc(-c2ccccn2)nc1-c1ccc(NC(=O)C(C)C)cc1
EXPERIMENTAL RESULT: 15.4

SMILES NOTATION: OC1(Cc2nc(-c3ccsc3)no2)CCCCC1
EXPERIMENTAL RESULT: 20.5

Any idea what intrinsic clearance, human liver microsomes was measured for Cc1ccc(CN(C)Cc2c(C)noc2C)o1 ?
27.6

###

Mark No for MDR1-MDCK efflux ratio values under 0.7, and Yes for everything at or above.

Example entries and their recorded answers appear below.
COMPOUND: Cc1ccccc1-n1cc[nH]c(=O)c1=O
CAT: Yes
//
COMPOUND: O=C(Cc1n[nH]c2ccccc12)N1CCCO1
CAT: Yes
//
COMPOUND: N#Cc1ccc(C(=O)N2CCCO2)nc1
CAT: No

Decide: is the reported value of MDR1-MDCK efflux ratio for CC(C)(O)C(=O)N1CCC(c2ccc3c(NCc4ccccc4F)n[nH]c3n2)CC1 equal to or greater than 0.7?
Yes

For this compound, is measured MDR1-MDCK efflux ratio 0.7 or higher? Cc1nc(C(C)C)sc1C(=O)Nc1nc(C(C)(C)C)cs1
No

For this compound, is measured MDR1-MDCK efflux ratio 0.7 or higher? COc1cc(CN2C[C@H]3CCc4c(nc(C)[nH]c4=O)[C@H]3C2)cc(OC)c1OC
Yes

Is it the case that C[C@@H]1CN(Cc2ccccc2)C[C@H]1c1nc2c(cnn2C2CCOCC2)c(=O)[nH]1 has MDR1-MDCK efflux ratio reaching or exceeding 0.7?
Yes

Evaluate O=C(OCC1CCSCC1)c1cccc(-n2cccn2)n1 : MDR1-MDCK efflux ratio at minimum 0.7?
No

###

Please respond with reported intrinsic clearance, human liver microsomes for every item in the list.

# annotated cases, reported intrinsic clearance, human liver microsomes shown
COMPOUND: Cc1ccc(CCNC(=O)c2ccncc2)o1
EXPERIMENTAL RESULT: ≤ 4.74 mL/min/kg

COMPOUND: Cc1ccc(=O)n(CC2(O)CCN(Cc3cccs3)CC2)n1
EXPERIMENTAL RESULT: ≤ 4.74 mL/min/kg

COMPOUND: c1ccc(CC2=NCCN2)cc1
EXPERIMENTAL RESULT: ≤ 4.74 mL/min/kg

COMPOUND: O=C(c1cc2ccccc2[nH]1)N1C[C@@H](O)[C@H](N2CCOCC2)C1
EXPERIMENTAL RESULT: ≤ 4.74 mL/min/kg

COMPOUND: Cc1nnc(-c2cccc(C(=O)O)c2)o1
EXPERIMENTAL RESULT: ≤ 4.74 mL/min/kg

COMPOUND: Cn1cc(Br)cc1C(=O)N1CCc2nn[nH]c2C1
EXPERIMENTAL RESULT: ≤ 4.74 mL/min/kg

COMPOUND: CC(C)(C)c1csc(NC(=O)C2CC2)n1
EXPERIMENTAL RESULT: 20.2 mL/min/kg

COMPOUND: O=C(CN1CCCC(c2cccc(-c3cccc(Cl)c3)n2)C1)N1CCCC1 (centres undefined)
EXPERIMENTAL RESULT: 51.4 mL/min/kg

COMPOUND: CS(=O)(=O)CCNC(=O)N1CC2(CCCC2)c2ccccc21
EXPERIMENTAL RESULT: 9.64 mL/min/kg

COMPOUND: Cc1ccc(C(=O)N(C)C)cc1NS(C)(=O)=O
EXPERIMENTAL RESULT: ≤ 4.74 mL/min/kg

Your task in this section: give intrinsic clearance, human liver microsomes for each listed record.
1. CCc1nc(N2CC(CO)C2)c2ccsc2n1
2. Cc1nc2ccccn2c1CC(=O)NCCCSc1ccccc1
3. Cc1nc(-c2cccc(-c3ccc(C(=O)NC[C@@H]4CCCN4)cc3)c2)no1
4. Cc1ccc(NC(=O)CN2C(=O)CN(C)C2=O)cc1C

1. 10.7 mL/min/kg
2. 77.8 mL/min/kg
3. ≤ 4.74 mL/min/kg
4. ≤ 4.74 mL/min/kg

Batch request: intrinsic clearance, human liver microsomes per item, same order as input.
1. COc1ccc(N)cc1N1CCOC1=O
2. CC1=CCN(C(=O)c2cc(C)nc3cc(C)cc(C)c23)CC1
3. COc1cccc([C@@H](C)n2cnc3cn(C)nc3c2=O)c1
4. c1ccc2c(N3CCn4c(nnc4C4CC4)C3)ncnc2c1
5. O=C1c2cccc3cccc(c23)C(=O)N1CCN1CCOCC1

≤ 4.74 mL/min/kg
97.7 mL/min/kg
≤ 4.74 mL/min/kg
≤ 4.74 mL/min/kg
12.1 mL/min/kg
